Quick record: pKi, Somatostatin receptor type 1 (Homo sapiens).
Where a SMILES comes first, the peptide text is derived from it. [ ]: non-standard residue; d: D form. d2Nal = N[C@H](Cc1ccc2ccccc2c1)C(=O)O
Quick note: pKi means taking -log10 of the concentration in moles per liter.

[[record]]
molecule = "CC(C)[C@H](NC(=O)[C@H](CCCCN)NC(=O)[C@@H](Cc1c[nH]c2ccccc12)NC(=O)[C@H](Cc1ccc(O)cc1)NC(=O)[C@H](Cc1ccccc1)NC(=O)[C@H](N)Cc1ccccc1)C(=O)N[C@@H](Cc1ccccc1)C(=O)N[C@H](C(N)=O)[C@@H](C)O [BIM-23058] (H-[dF]FY[dW]KVFT-NH2)"
endpoint_value = 6.00

[[record]]
molecule = "C[C@@H]1NC(=O)[C@@H]2CCCN2C(=O)[C@H](Cc2ccccc2)NC(=O)[C@H]([C@@H](C)O)NC(=O)[C@H](CCCCN)NC(=O)[C@@H](Cc2c[nH]c3ccccc23)NC1=O [cyclo(Pro-Ala-Trp-Lys-Thr-Phe)] (cyclo(A[dW]KTFP))"
endpoint_value = 6.00


Now turn to the next molecule.
Exercise: pKi lookup needed for CC(C)[C@H](NC(=O)[C@H](CCCCN)NC(=O)[C@@H](Cc1c[nH]c2ccccc12)NC(=O)[C@H](Cc1ccc(O)cc1)NC(=O)[C@H](C)NC(=O)[C@H](N)Cc1ccccc1)C(=O)N[C@@H](C)C(=O)N[C@H](Cc1ccc2ccccc2c1)C(N)=O (H-[dF]AY[dW]KVA[d2Nal]-NH2) , thanks.
Solution: 6.84
